- MEASUREMENT TARGET: Protein A purified IgG (rabbit antibodies to diacyl hydrazines)
- RUN DESCRIPTION: Indirect immunoassay (inhibition of purified IgG binding to RH2703-BSA coating antigen)
- SETTINGS: indirect assay, RH2703-BSA coating antigen, absorbance at 410 nm
Consider the following compounds; for each one, report its IC50.
State just the number; it will be interpreted in ng/mL.

I have this compound here, Cc1cc(C)cc(C(=O)N(NC(=O)c2ccc(CC(=O)O)cc2)C(C)(C)C)c1 [RH2703] , and I need its recorded IC50.
1.13

I have this compound here, COc1cccc(C(=O)NN(C(=O)c2cc(C)cc(C)c2)C(C)(C)C)c1C [RH2485] , and I need its recorded IC50.
0.05

I have this compound here, CC(C)(C)N(NC(=O)c1ccc(Cl)cc1)C(=O)c1ccccc1 [RH0345] , and I need its recorded IC50.
6.5

I have this compound here, CCc1ccc(C(=O)NN(C(=O)c2cc(C)cc(C)c2)C(C)(C)C)cc1 [RH5992] , and I need its recorded IC50.
0.61

I have this compound here, Cc1cc(C)cc(C(=O)N(NC(=O)c2ccc(C(=O)O)cc2)C(C)(C)C)c1 [RH2651] , and I need its recorded IC50.
1.59
